Tested on: 817829-284-R-J1-PDC complex spheroids, viability
Assay summary: Anticancer human tumor 817829-284-R-J1-PDC patient-derived colon adenocarcinoma cell line growth inhibition [CLK]; active means viability on the fitted dose curve at most 10% of control; inactive means the rest
Run conditions: second compound 0.1 µM; first compound 0.03 µM
# output must be one of t = active, f = inactive

Entry C=CC(=O)Nc1cc(Nc2nccc(-c3cn(C)c4ccccc34)n2)c(OC)cc1N(C)CCN(C)C + CN1CCN(c2cc(C(=O)Nc3cc4cc(-c5cnn(C)c5)ccc4cn3)ccn2)CC1 : call = ? f

Entry CC(C)CC(NC(=O)C(Cc1ccccc1)NC(=O)c1cnccn1)B(O)O (centres undefined) + CN1CCN(c2cc(C(=O)Nc3cc4cc(-c5cnn(C)c5)ccc4cn3)ccn2)CC1 : call = ? t

Entry CC(C)CC(NC(=O)C(Cc1ccccc1)NC(=O)c1cnccn1)B(O)O (centres undefined) + CNC(=O)c1ccc(Nc2nc(OC3CCCC3)c3c(-c4ccc5nc(C)oc5c4)c[nH]c3n2)c(OC)c1 : call = ? t

Entry NC(=O)C(=Cn1cnc(-c2cc(C(F)(F)F)cc(C(F)(F)F)c2)n1)c1cncnc1 + CN1CCN(c2cc(C(=O)Nc3cc4cc(-c5cnn(C)c5)ccc4cn3)ccn2)CC1 : call = ? t

###

Test system: 817829-284-R-J1-PDC complex spheroids, viability
Assay summary: Anticancer human tumor 817829-284-R-J1-PDC cell line growth inhibition [CLK];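 further: spheroids exposed to the agents for seven days before readout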
Run conditions: second compound 0.316 µM; first compound 3.16 µM; active compounds read low
Listing of entries alongside the reported viability, T/C.
Write it as a number; the unit % goes unstated.

COC1C=CCC(C)C(C)S(=O)(=O)NC(=O)c2ccc3c(c2)N(CC2CCC21)CC1(CCCc2cc(Cl)ccc21)CO3 (configuration not stated) + CN1CCN(c2cc(C(=O)Nc3cc4cc(-c5cnn(C)c5)ccc4cn3)ccn2)CC1 : 1.5

Documented viability, T/C of CC(=O)O[C@H]1C(=O)[C@@]2(C)[C@H]([C@H](OC(=O)c3ccccc3)[C@]3(O)C[C@H](OC(=O)[C@H](O)[C@@H](NC(=O)c4ccccc4)c4ccccc4)C(C)=C1C3(C)C)[C@]1(OC(C)=O)CO[C@@H]1C[C@@H]2O + CNC(=O)c1ccc(Nc2nc(OC3CCCC3)c3c(-c4ccc5nc(C)oc5c4)c[nH]c3n2)c(OC)c1 : 45.1

###

Test system: 817829-284-R-J1-PDC complex spheroids, viability
Assay summary: Anticancer human tumor 817829-284-R-J1-PDC cell line growth inhibition [CLK];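 further: spheroids exposed to the agents for seven days before readout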
Run conditions: second compound 1 µM; first compound 0.0316 µM; active compounds read low
Listing of entries alongside the reported viability, T/C.

CC(CO)NC(=O)c1cc(-c2ccc(Cl)cc2)nn(-c2cnn(C)c2)c1=O (stereo unspecified) + CN1CCN(c2cc(C(=O)Nc3cc4cc(-c5cnn(C)c5)ccc4cn3)ccn2)CC1 : 0.11%
C=C(F)C(=O)N1CCN(c2nc(OCC3CCCN3C)nc3c2CCN(c2cccc4cccc(Cl)c24)C3)CC1CC#N (stereo unspecified) + CN1CCN(c2cc(C(=O)Nc3cc4cc(-c5cnn(C)c5)ccc4cn3)ccn2)CC1 : 0.15%
CCc1c2c(nc3ccc(O)cc13)-c1cc3c(c(=O)n1C2)COC(=O)[C@]3(O)CC + CN1CCN(c2cc(C(=O)Nc3cc4cc(-c5cnn(C)c5)ccc4cn3)ccn2)CC1 : 0.2%
CCN1CCN(Cc2ccc(Nc3ncc(F)c(-c4cc(F)c5nc(C)n(C(C)C)c5c4)n3)nc2)CC1 + CN1CCN(c2cc(C(=O)Nc3cc4cc(-c5cnn(C)c5)ccc4cn3)ccn2)CC1 : 0.08%
O=C(c1cc(Cc2n[nH]c(=O)c3ccccc23)ccc1F)N1CCN(C(=O)C2CC2)CC1 + CNC(=O)c1ccc(Nc2nc(OC3CCCC3)c3c(-c4ccc5nc(C)oc5c4)c[nH]c3n2)c(OC)c1 : 22.3%
CC(CO)NC(=O)c1cc(-c2ccc(Cl)cc2)nn(-c2cnn(C)c2)c1=O (stereo unspecified) + CNC(=O)c1ccc(Nc2nc(OC3CCCC3)c3c(-c4ccc5nc(C)oc5c4)c[nH]c3n2)c(OC)c1 : 14.1%
O=c1[nH]cc(F)c(=O)[nH]1 + CN1CCN(c2cc(C(=O)Nc3cc4cc(-c5cnn(C)c5)ccc4cn3)ccn2)CC1 : 0.14%
O=C(c1cc(Cc2n[nH]c(=O)c3ccccc23)ccc1F)N1CCN(C(=O)C2CC2)CC1 + CN1CCN(c2cc(C(=O)Nc3cc4cc(-c5cnn(C)c5)ccc4cn3)ccn2)CC1 : 0.12%
O=c1[nH]cc(F)c(=O)[nH]1 + CNC(=O)c1ccc(Nc2nc(OC3CCCC3)c3c(-c4ccc5nc(C)oc5c4)c[nH]c3n2)c(OC)c1 : 17.2%
Nc1ccccc1NC(=O)c1ccc(CNC(=O)OCc2cccnc2)cc1 + CN1CCN(c2cc(C(=O)Nc3cc4cc(-c5cnn(C)c5)ccc4cn3)ccn2)CC1 : 0.11%

Now take the following compound into account.
Simply: C=CC(=O)N1CCN(c2nc(=O)n(-c3c(C)ccnc3C(C)C)c3nc(-c4c(O)cccc4F)c(F)cc23)C(C)C1 (stereo unspecified) + CN1CCN(c2cc(C(=O)Nc3cc4cc(-c5cnn(C)c5)ccc4cn3)ccn2)CC1 , 817829-284-R-J1-PDC complex spheroids, viability, viability, T/C = 0.15%
